# Measured Target: Human plasma kallikrein (Homo sapiens (Human), UniProt P03952)
# Sequence (P03952 391-638): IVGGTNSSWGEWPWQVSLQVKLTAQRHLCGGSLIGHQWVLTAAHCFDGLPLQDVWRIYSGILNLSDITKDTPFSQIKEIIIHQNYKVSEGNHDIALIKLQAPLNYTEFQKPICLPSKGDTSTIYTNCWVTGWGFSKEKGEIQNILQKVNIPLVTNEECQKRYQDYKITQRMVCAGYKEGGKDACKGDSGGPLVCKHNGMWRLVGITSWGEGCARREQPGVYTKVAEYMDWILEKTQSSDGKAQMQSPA
# Sequence (P03952 20-390 partner): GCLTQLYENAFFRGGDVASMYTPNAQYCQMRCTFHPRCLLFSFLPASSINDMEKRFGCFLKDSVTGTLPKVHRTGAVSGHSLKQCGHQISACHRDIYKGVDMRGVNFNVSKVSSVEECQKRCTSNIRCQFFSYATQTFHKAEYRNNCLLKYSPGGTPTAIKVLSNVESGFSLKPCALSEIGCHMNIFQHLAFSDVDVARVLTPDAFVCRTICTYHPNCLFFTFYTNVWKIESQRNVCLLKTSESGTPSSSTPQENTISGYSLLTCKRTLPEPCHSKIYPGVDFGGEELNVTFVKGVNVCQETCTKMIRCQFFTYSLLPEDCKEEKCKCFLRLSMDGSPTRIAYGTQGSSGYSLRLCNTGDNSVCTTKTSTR
# Test Details: Determination of the IC50 for Plasma Kallikrein
# Type: biochemical
# Condition Context: 37° C., fluorogenic substrate H-DPro-Phe-Arg-AFC; read-out: IC50 (human PKal)
For each entry below, report its pIC50 value.
Numbers only, as −log10 of the molar value.

Sample records with pIC50:
Cc1cnn(Cc2ccc(Cn3ncc(C(=O)NCc4c(C)cc(CN)cc4C)c3C)cc2)c1    8.10
Cc1cc(C(=O)NCc2ccc(CN)cc2)n(C)c1Cc1ccccc1    5.35
Cc1cc(C(=O)NCc2ccc([C@@H](C)N)cc2)c(C)n1Cc1csc(-c2ccccc2)n1    6.20
Cc1nn(Cc2csc(-c3ccccc3)n2)cc1C(=O)NCc1ccc(CN)cc1    6.16
COc1cc(CN)ccc1CNC(=O)c1cc(C)n(Cc2csc(-c3ccccc3)n2)c1C    7.52

Value sought for every listed compound: pIC50.
1. Cc1cc(C(=O)NCc2ccc(CN)cc2)c(C)n1Cc1csc(-c2cccnc2)n1
2. CCOc1cccc(Cn2c(C)cc(C(=O)NCc3ccc(CN)cc3)c2C)c1
3. Cc1cnn(Cc2ccc(Cn3cnc(C(=O)NCc4ccc(C5(N)CC5)cc4)c3)cc2)c1
4. CCn1c(C(=O)NCc2ccc(CN)cc2)cc(C)c1Cc1csc(-c2ccccc2)n1
5. Cc1cc(C(=O)NCc2ccc(CN)cc2)c(C)n1Cc1cccc(-c2cccnc2)c1
6. Cc1cc(C(=O)NCc2ccc(CN)cc2)c(C)n1Cc1csc(-c2cccc(F)c2)n1

[A]
1. 6.60
2. 5.31
3. 6.03
4. 5.67
5. 6.15
6. 6.85

Value sought for every listed compound: pIC50.
1. Cc1cc(C)n(Cc2ccc(Cn3cc(C(=O)NCc4ccc(CN)cc4)cn3)cc2)n1
2. Cc1cc(C(=O)NCc2ccc(CN)cc2)c(C)n1Cc1cccc(-c2ccccc2)c1
3. Cc1cc(C(=O)NCc2ccc(CN)cc2)c(C)n1Cc1csc(-c2ccc(Cl)cc2)n1
4. NCc1ccc(CNC(=O)c2cnn(Cc3ccc(C(=O)N4CCCCC4)cc3)c2)cc1

[A]
8.15
6.16
5.88
5.26

Value sought for every listed compound: pIC50.
1. CC(C)NC(=O)c1ccc(Cn2cc(C(=O)NCc3ccc(CN)cc3)cn2)cc1
2. Cc1cc(C(=O)NCc2ccc(CN)cc2)c(C)n1Cc1cc(-c2cccnc2)cs1

[A]
1. 5.26
2. 5.62

###

# Measured Target: Human plasma kallikrein (Homo sapiens (Human))
# Test Details: Determination of the IC50 for Plasma Kallikrein
# Format: biochemical
# Condition Context: 37° C., fluorogenic substrate H-DPro-Phe-Arg-AFC; read-out: IC50 (human PKal)
For each entry below, report its pIC50 value.
Answers are plain numbers, as −log10 of the molar value.

Sample records with pIC50:
CCn1c(C(=O)NCc2ccc(CN)cc2)cc(C)c1Cc1ccc(Cn2ccccc2=O)cc1    6.82
CCn1c(C(=O)NCc2ccc(C3(N)CC3)cc2)cc(C)c1Cc1ccc(Cn2ccccc2=O)cc1    5.55
Cc1cc(C(=O)NCc2ccc(CN)cc2)c(C)n1Cc1ccccc1    5.49
Cc1cc(C(=O)NCc2ccc(CN)cc2)c(C)n1Cc1cccc(C(N)=O)c1    5.22

Value sought for every listed compound: pIC50.
1. Cc1cc(CN)cc(C)c1CNC(=O)c1cc(C)n(Cc2csc(-c3ccccc3)n2)c1C
2. Cc1cc(C(=O)NCc2ccc(CN)cc2C(F)(F)F)c(C)n1Cc1csc(-c2ccccc2)n1
3. Cc1cc(C(=O)NCc2ccc(CN)nc2)c(C)n1Cc1csc(-c2ccccc2)n1
4. Cc1cnn(Cc2ccc(Cn3cc(C(=O)NCc4c(C)cc(CN)cc4C)c(C(F)(F)F)n3)cc2)c1

[A]
8.22
7.25
6.71
9.00

Value sought for every listed compound: pIC50.
1. Cc1cc(C(=O)NCc2ccc(CN)cc2)c(C)n1Cc1cccc(C#N)c1
2. Cc1cc(C(=O)NCc2ccc(CN)cc2)c(C)n1Cc1csc(-c2cccc(Cl)c2)n1
3. Cc1cc(C(=O)NCc2ccc(CN)cc2)c(C)n1Cc1coc(-c2ccccc2)n1
4. Cc1cc(C(=O)NCc2ccc(CN)cc2)c(C)n1Cc1csc(-c2ccsc2)n1
5. COc1cc(CNC(=O)c2cc(C)n(Cc3csc(-c4ccccc4)n3)c2C)ccc1CN

[A]
1: 5.20; 2: 6.07; 3: 6.36; 4: 6.77; 5: 6.17
